target: Muscarinic acetylcholine receptor M1 (Homo sapiens) (UniProt P11229); assay: Positive allosteric modulation of human muscarinic acetylcholine M1 receptor expressed in CHO cells assessed as potentiation of acetylcholine-induced calcium mobilization relative to acetylcholine; type: functional, cell-based
Sequence (P11229 whole entry): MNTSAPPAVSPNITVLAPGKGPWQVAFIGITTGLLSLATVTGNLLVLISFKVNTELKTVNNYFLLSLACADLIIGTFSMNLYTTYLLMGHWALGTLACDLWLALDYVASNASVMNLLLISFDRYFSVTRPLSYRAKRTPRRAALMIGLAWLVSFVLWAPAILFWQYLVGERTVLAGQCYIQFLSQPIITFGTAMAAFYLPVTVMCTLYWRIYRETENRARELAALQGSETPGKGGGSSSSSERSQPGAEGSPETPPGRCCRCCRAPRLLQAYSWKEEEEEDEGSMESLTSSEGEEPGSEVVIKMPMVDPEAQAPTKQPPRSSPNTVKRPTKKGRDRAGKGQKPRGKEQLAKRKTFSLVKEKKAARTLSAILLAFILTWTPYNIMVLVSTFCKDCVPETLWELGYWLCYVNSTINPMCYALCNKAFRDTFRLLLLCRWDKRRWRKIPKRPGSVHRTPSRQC
Listed next: entries and their corresponding %max.
Please state the figure in %; there is no need to write the unit.

Use these answered entries as a reference point.
Record CC(C)(O)CNC(=O)C1CN(Cc2ccc(-n3cccn3)cc2)c2ccccc2O1 (centres undefined) , field %max: 60

Item: O=C(N[C@H]1CCCC[C@@H]1O)C1CN(Cc2ccc(-n3cccn3)cc2)c2cc(F)ccc2O1 (some centres undefined) | %max: 88

For record CC1(C(=O)N[C@H]2CCCC[C@@H]2O)CN(Cc2ccc(-n3cccn3)cc2)c2ccccc2O1 (mixture of isomers) the listed %max is 61

The measured %max associated with O=C(N[C@H]1CCCC[C@@H]1O)C1CN(Cc2ccc(-n3cccn3)cc2)c2cccc(F)c2O1 (some centres undefined) reads 89

Kindly note the recorded %max for O=C(N[C@H]1CCCC[C@@H]1O)C1CN(Cc2ccc(-n3cccn3)cc2)c2c(F)cccc2O1 (some centres undefined) , which is 76

The reported value for O=C(Nc1ncccc1F)C1CN(Cc2ccc(-n3cccn3)cc2)c2ccccc2O1 (centres undefined) in terms of %max is 81

***
%max reported for this molecule O=C(N[C@H]1CCCC[C@@H]1O)C1CN(Cc2ccc(-n3cccn3)cc2)c2ccc(F)cc2O1 (some centres undefined) : 80

// O=C(N[C@H]1CCCC[C@@H]1O)C1Cc2ccccc2N(Cc2ccc(-n3cccn3)cc2)C1 (mixture of isomers) : %max value = 75

// %max value for C=Cc1ccc(CN2CC(C(=O)N[C@H]3CCCC[C@@H]3O)Oc3ccccc32)cn1 (some centres undefined) : 89

Attribution: ChEMBL document CHEMBL4118174
